# Protocol Details: Plasma pharmacokinetics in mice after single intravenous cassette doses
# Experimental Parameters: male, Hsd:ICR (CD-1), mouse, plasma, iv, 3 mg/kg, t1/2, λz, mouse plasma, iv Cassette #4, 3 mg/kg/compound (15 mg/kg total dose)
Test Readout: half-life (h)
Give bare numbers, in h.

IN: Reported half-life, molecule NC1CCC(Nc2nc(NCCCc3ccccc3)c3ncn(C4CCCC4)c3n2)CC1 (stereo not shown) [MDL 107167, reference compound] : ____
OUT: 1.5

----------
# Protocol Details: Plasma pharmacokinetics in mice after single intravenous cassette doses
# Experimental Parameters: male, Hsd:ICR (CD-1), mouse, plasma, iv, 3 mg/kg, AUC0-∞, mouse plasma, iv Cassette #2, 3 mg/kg/compound (18 mg/kg total dose)
Test Readout: AUC(0-inf) (ng·h/mL)
Give bare numbers, in ng·h/mL.

IN: Reported AUC(0-inf), compound NC1CCC(Nc2nc(NCCCc3ccccc3)c3ncn(C4CCCC4)c3n2)CC1 (stereo not shown) [MDL 107167, reference compound] : ____
OUT: 467
